# system.tested: T1, RBFOX1 RRM (Homo sapiens, UniProt Q9NWB1 109-208)
# T1 sequence: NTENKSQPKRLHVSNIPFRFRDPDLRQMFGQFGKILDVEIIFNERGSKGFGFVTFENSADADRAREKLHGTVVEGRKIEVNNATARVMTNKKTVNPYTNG
# measurement.protocol: EMSA; HiTS-Eq, 1 nM pool, 10 min; buffer printed only for the single-RNA assays: 10 mM Tris pH 7.5, 150 mM NaCl, 3.4 mM EDTA, 0.001% NP-40, 30 C
# assay.context: tags: His6 N-terminal (pET28a); label: 5' 32P
The full ranking holds about 16,000 sequences; the median of “ka relative to ugcaugu” is about 0.0091, and the highest 2% start at about 0.032. The sample holds the highest values, similar sequences and a random draw of the others, so the mix is not that of the screen.
assay.readout: binding signal

[[record]]
binder = "UUGUUGC (DNA:RNA) RNA: GGGAGACCGGAAUUCAGAUUGUCCUUGUUGCUUAAAUCCCGUCGUAGCCACCA DNA 1: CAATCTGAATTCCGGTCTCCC DNA 2: TGGTGGCTACGACGGGATT"
data_value = "0.0249 KA relative to UGCAUGU"


Input: Entry under review: UUGUUAG (DNA:RNA) RNA: GGGAGACCGGAAUUCAGAUUGUCCUUGUUAGUUAAAUCCCGUCGUAGCCACCA DNA 1: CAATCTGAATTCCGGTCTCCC DNA 2: TGGTGGCTACGACGGGATT . Reported binding signal?
Output: 0.0257 KA relative to UGCAUGU
